Test system: OVCAR-3 ovarian
Test: NCI tumour cell line growth inhibition, 48 h; in the data active = GI50 below about 0.43 µM; inactive = the rest
Could you please pick one outcome from this set? active, inactive

Illustrative cases are given below, each with its answer.
compound=N#C/C(=C\c1cn(Cc2ccccc2)c2ccccc12)C(=O)Nc1ncc(Cc2ccccc2Cl)s1 test_system="OVCAR-3 ovarian" cat=inactive
compound="COC(=O)C1=C(OC(=O)c2ccccc2)C(C(=O)OC)[C@]2(O)[C@@H](C(=O)OC)C1CC(c1ccccc1OC)[C@@H]2C(=O)OC (stereo partly drawn)" test_system="OVCAR-3 ovarian" cat=inactive
compound=O=[N+]([O-])c1ccc(C(Br)c2ccc([N+](=O)[O-])cc2)cc1 test_system="OVCAR-3 ovarian" cat=inactive
compound=Oc1ccc(Nc2nc3ccccc3c3occc23)cc1 test_system="OVCAR-3 ovarian" cat=inactive
compound=COc1cc(/C=C/C(=O)Nc2ccc3c(c2)/C(=C\c2cccn2C)C(=O)N3)cc(OC)c1OC test_system="OVCAR-3 ovarian" cat=inactive
compound=Brc1ccc(SCN(CSc2ccc(Br)cc2)Cc2ccccc2)cc1 test_system="OVCAR-3 ovarian" cat=inactive

Status in this test for `CCOC(=O)/C=C/C1=C(c2ccsc2)c2ccc(OC)cc2CC1` ?
active

Status in this test for `Cn1c(=O)n(CCCO)c(=O)c2c1nc(Oc1cccc(OC(F)(F)F)c1)n2Cc1ccc(Cl)cc1` ?
inactive

Status in this test for `CCCSc1ccc2nc(NC(=O)OC)[nH]c2c1` ?
active

Status in this test for `Cc1ccc(/C(=N/NS(=O)(=O)c2ccc([N+](=O)[O-])cc2)Sc2cc(Cl)c(C)cc2S(N)(=O)=O)cc1` ?
inactive

Status in this test for `CCNCCCn1c2c(c3ccc(F)cc3c1=O)C(=O)c1cc(OC)cnc1-2` ?
active

Status in this test for `CC1(C)CCC2(CC1)N[C@@H](C(=O)N[C@@H]1CC[C@@H](C(N)=O)OC1)[C@H](c1ccnc(Cl)c1F)[C@]21C(=O)Nc2cc(Cl)ccc21` ?
inactive

Status in this test for `O=C(Nc1cccc(-n2ccc3c(NC(=O)c4ccccc4)nccc32)c1)Nc1ccc(Cl)c(C(F)(F)F)c1` ?
active

Status in this test for `O=C(Nc1ccc(-n2cc(-c3ccncc3)c(-c3ccc(O)c(Cl)c3)n2)cc1)c1cc(C(F)(F)F)cc(C(F)(F)F)c1` ?
inactive

Status in this test for `C=C1C(=O)O[C@H]2[C@H]1CC/C(CNC(=O)c1cccc3ccccc13)=C\CC[C@@]1(C)O[C@@H]21` ?
inactive

Status in this test for COc1cccc2c1C(=O)c1c(O)c3c(c(O)c1C2=O)CC(O)(/C(C)=N/NC(=O)CCCCC(=O)N/N=C(\C)C1(O)Cc2c(O)c4c(c(O)c2C(OC2CC(N)C(O)C(C)O2)C1)C(=O)c1c(OC)cccc1C4=O)CC3OC1CC(N)C(O)C(C)O1 (stereo not drawn) ?
active

Status in this test for CNC(=O)C(CCc1ccccc1)NC(=O)C(CC(=O)NO)CC(C)C (stereo not drawn) ?
inactive

Status in this test for `Nc1ccccc1C#C/C=C\C#Cc1cnccn1` ?
inactive
